Cited source for all entries: patent US7205298B2

# assayed system: PDGF-R (beta subunit kinase domain) (Homo sapiens)
# Construct: nucleotides 1874–3507 of the human PDGF-R beta subunit kinase domain; polyhistidine (N)
# Sequence (P09619 554-1106 limits assumed): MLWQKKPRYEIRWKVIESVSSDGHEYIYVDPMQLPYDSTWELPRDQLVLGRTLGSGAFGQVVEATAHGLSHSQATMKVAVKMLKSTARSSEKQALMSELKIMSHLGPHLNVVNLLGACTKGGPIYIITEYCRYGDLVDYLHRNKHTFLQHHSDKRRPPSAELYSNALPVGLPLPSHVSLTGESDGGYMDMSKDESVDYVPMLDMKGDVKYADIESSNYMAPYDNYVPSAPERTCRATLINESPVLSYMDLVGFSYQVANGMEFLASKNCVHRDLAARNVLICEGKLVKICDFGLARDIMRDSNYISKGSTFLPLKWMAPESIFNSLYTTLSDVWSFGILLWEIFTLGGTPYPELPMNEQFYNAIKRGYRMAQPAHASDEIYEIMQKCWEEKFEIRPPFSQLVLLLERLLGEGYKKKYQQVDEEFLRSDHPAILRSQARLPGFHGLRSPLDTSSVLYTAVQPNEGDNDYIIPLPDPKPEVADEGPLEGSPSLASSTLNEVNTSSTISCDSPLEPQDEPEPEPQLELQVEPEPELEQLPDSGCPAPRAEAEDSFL
# experiment summary: Kinase selectivity assay PDGF-R
pIC50: −log10 of the molar value.

# test smiles, pIC50
rows = [
    ("OCCCNc1cncc(-c2ncnc(Nc3cccc(Cl)c3)n2)c1", 5.93),
]

----------
# assayed system: MAP Kinase ERK-2 (Rattus norvegicus, UniProt P63086)
# Sequence (P63086 whole entry): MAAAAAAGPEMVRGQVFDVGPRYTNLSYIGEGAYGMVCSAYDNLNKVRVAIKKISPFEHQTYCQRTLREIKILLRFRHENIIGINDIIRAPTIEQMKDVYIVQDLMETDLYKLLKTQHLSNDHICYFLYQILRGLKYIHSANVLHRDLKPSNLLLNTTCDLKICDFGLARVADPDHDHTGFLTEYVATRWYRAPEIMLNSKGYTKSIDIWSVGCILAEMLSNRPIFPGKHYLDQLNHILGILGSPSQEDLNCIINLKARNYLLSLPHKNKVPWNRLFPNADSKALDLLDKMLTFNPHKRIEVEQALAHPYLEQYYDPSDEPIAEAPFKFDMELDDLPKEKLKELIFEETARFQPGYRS
pIC50: −log10 of the molar value.

# molecule, pIC50
data = [
    ("OCCCNc1cc(-c2ncnc(Nc3cccc(Cl)c3)n2)ccn1 [Compound 2]", "< 5.00"),
]

----------
# assayed system: Insulin Receptor Kinase (Homo sapiens, UniProt P06213)
# Construct: consists of residues 941–1313 of the cytoplasmic domain of the beta-subunit of the human insulin receptor
# Sequence (P06213 980-1352): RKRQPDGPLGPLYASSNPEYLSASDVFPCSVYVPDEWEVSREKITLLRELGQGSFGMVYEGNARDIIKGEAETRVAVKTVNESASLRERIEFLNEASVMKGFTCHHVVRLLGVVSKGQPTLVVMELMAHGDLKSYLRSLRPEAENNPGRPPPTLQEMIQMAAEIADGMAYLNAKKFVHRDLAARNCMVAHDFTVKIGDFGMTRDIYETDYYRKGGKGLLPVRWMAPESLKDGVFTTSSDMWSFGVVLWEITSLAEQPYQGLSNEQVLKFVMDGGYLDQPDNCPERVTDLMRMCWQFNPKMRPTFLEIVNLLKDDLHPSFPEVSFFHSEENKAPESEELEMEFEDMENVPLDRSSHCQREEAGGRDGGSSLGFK
# experiment summary: Kinase selectivity assay Insulin Receptor Kinase
# Protocol: Assays to test compound inhibition of other kinases were preformed using methods that measure the amount of phosphorylation of a biotinylated peptide substrate. Biotinylated peptide substrates were selected from the literature as appropriate for the enzyme being evaluated. […] The plate was read on a scintillation counter to determine ^33P-γ-ATP incorporated into the immobilized peptide substrate. […] A maximum and minimum signal for the assay was determined on each plate. […]
Below, each entry is listed with its recorded IC50.
measured attribute: IC50 (µM)

# test smiles, measured attribute, bound sign, recorded result
measured = [
    ("OCCCNc1cncc(-c2ncnc(Nc3cccc(Cl)c3)n2)c1", "IC50", "=", 18.2),
    ("OCCCNc1cc(-c2ncnc(Nc3cccc(Cl)c3)n2)ccn1", "IC50", ">", 10),
]

----------
# assayed system: VEGF-R (rat VEGF-R2 kinase domain) (Rattus norvegicus)
# Construct: 6xHis (polyhistidine) (N)
# Sequence (O08775 786-1343): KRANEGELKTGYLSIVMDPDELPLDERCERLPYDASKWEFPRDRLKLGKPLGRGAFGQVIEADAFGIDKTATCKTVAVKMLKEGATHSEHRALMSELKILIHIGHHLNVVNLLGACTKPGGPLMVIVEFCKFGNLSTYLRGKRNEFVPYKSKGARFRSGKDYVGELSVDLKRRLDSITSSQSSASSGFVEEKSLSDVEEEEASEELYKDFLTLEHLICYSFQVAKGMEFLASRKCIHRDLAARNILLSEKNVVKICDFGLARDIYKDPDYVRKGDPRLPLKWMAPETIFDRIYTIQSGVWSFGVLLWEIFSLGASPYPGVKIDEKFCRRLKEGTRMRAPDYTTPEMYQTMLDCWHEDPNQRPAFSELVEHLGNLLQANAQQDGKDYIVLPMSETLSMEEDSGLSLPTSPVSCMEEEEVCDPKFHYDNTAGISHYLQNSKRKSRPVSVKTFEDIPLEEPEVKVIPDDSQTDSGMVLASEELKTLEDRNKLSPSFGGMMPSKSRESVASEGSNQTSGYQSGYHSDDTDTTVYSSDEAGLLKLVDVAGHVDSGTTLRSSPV
# experiment summary: VEGF-R Screening Assay
# Format: biochemical
measured attribute: IC50

# test smiles, assayed system, recorded result
data = [
    ("OCCCNc1cncc(-c2ncnc(Nc3ccc4c(c3)OCCO4)n2)c1", "VEGF-R (rat VEGF-R2 kinase domain) (Rattus norvegicus)", "≥ 10 µM"),
]

----------
# assayed system: PKC γ (Homo sapiens, UniProt P05129)
pIC50: −log10 of the molar value.

# test smiles, pIC50
data = [
    ("OCCCNc1cncc(-c2ncnc(Nc3cccc(Cl)c3)n2)c1", "< 4.00"),
]

----------
Below, each entry is listed with its recorded IC50.
# Test system: HeLa cervical adenocarcinoma
# experiment summary: Inhibition of cell proliferation, 14C-thymidine incorporation, HeLa
# Assay type: cell-based
# assay setup: Homo sapiens

# test smiles, IC50, nM
measured = [
    ("OCCCNc1cc(-c2ncnc(Nc3cccc(Cl)c3)n2)ccn1", 105),
    ("OCCCNc1cncc(-c2ncnc(Nc3cccc(Cl)c3)n2)c1", 298),
]
